- METHOD SUMMARY: Selectivity index, ratio of IC50 for CHO cells to IC50 for chloroquine-sensitive Plasmodium falciparum NF54
- Assay type: toxicity
- CONDITIONS: hamster, read-out: Ratio IC50
RECORDED METRIC: selectivity ratio

INSERT INTO measurements (compound, recorded_metric, value_reported) VALUES
  ('N#Cc1c(-c2ccc(C(F)(F)F)cc2)cc(NCCn2ccnc2)n2c1nc1ccccc12', 'selectivity ratio', 27),
  ('CCN(CC)CCCC(C)Nc1cc(-c2ccc(C(F)(F)F)cc2)c(C#N)c2nc3ccccc3n12 (stereo not given)', 'selectivity ratio', 4),
  ('N#Cc1c(-c2ccc(C(F)(F)F)cc2)c(F)c(NCCN2CCC(O)C2)n2c1nc1ccccc12 (stereo not given)', 'selectivity ratio', 1080),
  ('N#Cc1c(-c2ccc(C(F)(F)F)cc2)cc(N2CCC(N)CC2)n2c1nc1ccccc12', 'selectivity ratio', 17),
  ('CCNCCNc1cc(-c2ccc(C(F)(F)F)cc2)c(C#N)c2nc3ccccc3n12', 'selectivity ratio', 13),
  ('CCNCCNc1cc(C2CCCC2)c(C#N)c2nc3ccccc3n12', 'selectivity ratio', 5),
  ('CCNCCNc1cc(-c2ccc(Cl)c(Cl)c2)c(C#N)c2nc3ccccc3n12', 'selectivity ratio', 14),
  ('N#Cc1c(-c2ccc(C(F)(F)F)cc2)cc(N2CCC(N)CC2)n2c1nc1cc(Cl)cc(Cl)c12', 'selectivity ratio', 7.3),
  ('CCNCCNc1cc(-c2ccc(C(F)(F)F)cc2)c(C#N)c2nc3cnccc3n12', 'selectivity ratio', 6),
  ('CCNCCNc1cc(C2CCCCC2)c(C#N)c2nc3ccccc3n12', 'selectivity ratio', 7);

---

- METHOD SUMMARY: Metabolic stability in Balb/c mouse liver microsomes assessed as compound remaining at 1 uM in presence of NADPH after 30 mins by LC-MS/MS analysis
- Type: ADME, microsome
- CONDITIONS: read-out: Stability
RECORDED METRIC: remaining at 0.5 h, 1 µM (%)

INSERT INTO results (molecule, value_reported) VALUES
  ('CCNCCNc1cc(-c2ccc(C(F)(F)F)cc2)c(C#N)c2nc3cc(Cl)cc(Cl)c3n12', 87),
  ('CCNCCNc1cc(-c2ccc(C(F)(F)F)cc2)c(C#N)c2nc3cccc(Cl)c3n12', 93),
  ('CS(=O)(=O)c1ccc(-c2cnc(N)c(-c3ccc(C(F)(F)F)nc3)c2)cc1', 94),
  ('CCNCCNc1cc(-c2ccc(C(F)(F)F)cc2)c(C#N)c2nc3cc(Cl)ccc3n12', 75),
  ('CCN(CC)CCCC(C)Nc1cc(-c2ccc(C(F)(F)F)cc2)c(C#N)c2nc3ccccc3n12 (centres undefined)', 32),
  ('N#Cc1c(-c2ccc(C(F)(F)F)cc2)cc(NC2CCNCC2)n2c1nc1ccccc12', 65),
  ('CCNCCNc1cc(-c2ccc(Cl)c(Cl)c2)c(C#N)c2nc3ccccc3n12', 65),
  ('CCNCCNc1cc(-c2ccc(C(F)(F)F)cc2)c(C#N)c2nc3ccccc3n12', 97),
  ('CCNCCNc1cc(-c2ccc(C(F)(F)F)cc2)c(C#N)c2nc3cc(Cl)c(Cl)cc3n12', 81);

---

- METHOD SUMMARY: Clearance in C57/Bl6 mouse at 2.5 mg/kg, iv by LC-MS method
- Format: ADME, organism-based
- CONDITIONS: in vivo
# Lookup of reported clearance keyed by entry
RECORDED METRIC: clearance (L/h/kg)

INSERT INTO results (compound_structure_string, value_reported) VALUES
  ('CCNCCNc1cc(-c2ccc(C(F)(F)F)cc2)c(C#N)c2nc3cc(Cl)c(Cl)cc3n12', 1.26),
  ('CCNCCNc1cc(-c2ccc(C(F)(F)F)cc2)c(C#N)c2nc3cc(Cl)cc(Cl)c3n12', 0.66);

---

- Test system: Plasmodium berghei
- METHOD SUMMARY: Antimalarial activity against GFP-fused Plasmodium berghei ANKA infected in mouse assessed as mouse mean survival days at 50 mg/kg, po administered once daily for 4 days
- Format: functional
RECORDED METRIC: MSD (days)

INSERT INTO measurements (compound_structure_string, assay_target, value_reported) VALUES
  ('CCNCCNc1cc(-c2ccc(C(F)(F)F)cc2)c(C#N)c2nc3cccc(Cl)c3n12', 'Plasmodium berghei', 7),
  ('CCNCCNc1cc(-c2ccc(C(F)(F)F)cc2)c(C#N)c2nc3cc(Cl)cc(Cl)c3n12', 'Plasmodium berghei', 30),
  ('CCNCCNc1cc(-c2ccc(C(F)(F)F)cc2)c(C#N)c2nc3ccccc3n12.Cl', 'Plasmodium berghei', 14),
  ('CCNCCNc1cc(-c2ccc(C(F)(F)F)cc2)c(C#N)c2nc3cc(Cl)c(Cl)cc3n12', 'Plasmodium berghei', 30),
  ('CCNCCNc1cc(-c2cccc(F)c2)c(C#N)c2nc3ccccc3n12', 'Plasmodium berghei', 24);

---

// selectivity ratio lookup, one value per entry
- METHOD SUMMARY: Selectivity index, ratio of IC50 for CHO cells to IC50 for chloroquine-sensitive Plasmodium falciparum NF54
- Format: toxicity
- CONDITIONS: hamster, read-out: Ratio IC50
RECORDED METRIC: selectivity ratio

INSERT INTO assay_data (compound, value_reported) VALUES
  ('CCNCCNc1cc(-c2ccc(C(F)(F)F)cc2)c(C#N)c2nc3cc(Br)ccc3n12', 5),
  ('CN1CCC(Oc2cc(-c3ccc(C(F)(F)F)cc3)c(C#N)c3nc4ccccc4n23)CC1', 6),
  ('CCNCCNc1cc(-c2ccc(C(F)(F)F)cc2)c(C#N)c2nc3ncccc3n12', 5),
  ('CCNCCNc1cc(-c2ccc(S(C)(=O)=O)cc2)c(C#N)c2nc3ccccc3n12', 658),
  ('N#Cc1c(-c2ccc(C(F)(F)F)cc2)cc(NCCN2CCC(O)C2)n2c1nc1ccccc12 (stereo not given)', 153);

---

- Tested on: Plasmodium falciparum
- METHOD SUMMARY: Anti-plasmodial activity against chloroquine-sensitive Plasmodium falciparum NF54 late 4/5 stage gametocytes assessed as reduction in ATP levels after 24 hrs by BacTiter-Glo reagent based bioluminescence assay
- Assay type: functional
- CONDITIONS: NF54, 24 h
pIC50: −log10 of the molar value.
The reader will find reported pIC50 values listed item by item below.
RECORDED METRIC: pIC50

INSERT INTO assay_data (compound, value_reported) VALUES
  ('CCNCCNc1cc(-c2ccc(Cl)c(Cl)c2)c(C#N)c2nc3ccccc3n12', 6.23),
  ('CCNCCNc1cc(-c2ccc(C#N)cc2)c(C#N)c2nc3ccccc3n12', 5.58),
  ('N#Cc1c(-c2ccc(C(F)(F)F)cc2)cc(NCCn2ccnc2)n2c1nc1ccccc12', 5.99),
  ('N#Cc1c(-c2ccc(C(F)(F)F)cc2)cc(NC2CCNCC2)n2c1nc1ccccc12', 5.94),
  ('CCNCCNc1cc(-c2cccc(F)c2)c(C#N)c2nc3ccccc3n12', 5.44),
  ('CCNCCNc1cc(C2CCCC2)c(C#N)c2nc3ccccc3n12', 6.17),
  ('CCNCCNc1cc(-c2ccc(Cl)cc2)c(C#N)c2nc3ccccc3n12', 6.16),
  ('CCNCCNc1cc(-c2ccc(C(=O)OC)cc2)c(C#N)c2nc3ccccc3n12', 5.77),
  ('CCNCCNc1c(C)c(-c2ccc(C(F)(F)F)cc2)c(C#N)c2nc3ccccc3n12', 5.59),
  ('CCNCCNc1cc(-c2ccccc2)c(C#N)c2nc3ccccc3n12', 5.84),
  ('CCNCCNc1cc(-c2cccc(C(F)(F)F)c2)c(C#N)c2nc3ccccc3n12', 6.31),
  ('CCN(CC)CCCC(C)Nc1cc(-c2ccc(C(F)(F)F)cc2)c(C#N)c2nc3ccccc3n12 (stereo not given)', 5.52),
  ('CCNCCNc1cc(-c2ccc(F)cc2)c(C#N)c2nc3ccccc3n12', 5.75),
  ('CCNCCNc1cc(C2CCCCC2)c(C#N)c2nc3ccccc3n12', 6.34),
  ('CCNCCNc1cc(-c2ccc(C(F)(F)F)cc2)c(C#N)c2nc3cc(Cl)c(Cl)cc3n12', 6.14);

---

- Test system: Plasmodium berghei
- METHOD SUMMARY: Antimalarial activity against GFP-fused Plasmodium berghei ANKA infected in mouse assessed as protection against parasitemia at 50 mg/kg, po administered once daily for 4 days measured 30 days post infection by light microscopy
- Format: functional, organism-based
Active and inactive are the calls of the source. The rule behind the calls is not given here.
Outcomes: TRUE = active, FALSE = inactive

INSERT INTO results (compound_structure_string, assay_target, group_label) VALUES
  ('CCNCCNc1cc(-c2ccc(C(F)(F)F)cc2)c(C#N)c2nc3cc(Cl)c(Cl)cc3n12', 'Plasmodium berghei', 'TRUE'),
  ('CCNCCNc1cc(-c2ccc(C(F)(F)F)cc2)c(C#N)c2nc3ccccc3n12', 'Plasmodium berghei', 'FALSE'),
  ('CCNCCNc1cc(-c2ccc(C(F)(F)F)cc2)c(C#N)c2nc3cccc(Cl)c3n12', 'Plasmodium berghei', 'FALSE'),
  ('CCNCCNc1cc(-c2ccc(C(F)(F)F)cc2)c(C#N)c2nc3cc(Cl)cc(Cl)c3n12', 'Plasmodium berghei', 'TRUE');
